# tested system: T1, MED15-ABD3 (human, UniProt Q96RN5-2 453-561)
# T1 sequence (looked up): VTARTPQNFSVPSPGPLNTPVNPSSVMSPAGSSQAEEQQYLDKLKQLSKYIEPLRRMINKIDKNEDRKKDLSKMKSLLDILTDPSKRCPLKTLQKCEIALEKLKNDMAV
# procedure text: SPR
measured endpoint: pKd
# pKd is unitless: minus log10 of the molar concentration; print number only

Recorded pKd for YAP-TAD (domain or fragment, human, UniProt P46937 450-504, looked up) GTNVDLGTLEGDGMNIEGEELMPSLQEALSSDILNDMESVLAATKLDKESFLTWL , please?
6.80
